test: RP, Waters ACQUITY UPLC HSS T3, 150 × 2.1 mm, 1.8 µm, 45 °C, 0.6 mL/min, estimated dead time 0.55 min; A: water + 0.1% formic acid, pH 3; B: acetonitrile + 0.1% formic acid, pH 3; gradient (min/%B) 0/1 0.1/1 10/55 10.15/65 10.30/75 10.45/85 10.60/95 10.70/100 11/100 11.55/100 11.65/1 11.70/1 11.80/1 11.90/1 12/1 12.10/1 12.15/1 12.65/1; details: stereoisomer not certain
Where LC retention time equals or exceeds 2 min, the correct label is 1.0; where it does not, the label is 0.0.

Here are 5 compounds together with their reported answers.
{"Compound": "COc1cc(CC(=O)O)ccc1O", "Group": 1.0}
{"Compound": "OCC1OC(OC2(CO)OC(CO)C(O)C2O)C(O)C(O)C1O (stereo not given)", "Group": 0.0}
{"Compound": "CC(=O)NC(CCCN=C(N)N)C(=O)O (stereo not given)", "Group": 0.0}
{"Compound": "NCCc1ccc(O)c(OS(=O)(=O)O)c1 [Dopamine 3-O-sulfate]", "Group": 0.0}
{"Compound": "CC(CCC(=O)NCC(=O)O)C1CCC2C3CCC4CC(O)CCC4(C)C3CC(O)C12C (stereo not given)", "Group": 1.0}

Please examine the following record next.
API: above_or_equal(metric=LC retention time, cutoff=2 min) for item O=C(O)CC(O)(CC(=O)O)C(=O)O
0.0

src = the RepoRT retention time repository
